# Tested on: Aspergillus niger
# assay remarks: Antifungal activity against Aspergillus niger after 72 hrs by broth dilution method
# Assay type: functional
Activity calls are given as the source filed them. The rule behind the calls is not given here.
readout name: MIC95

>>> result("COc1cc(/C=C/C(=O)C2=C(/C=C/c3ccc(O)c(OC)c3)N=C3Sc4ccccc4N3C2c2ccc(O)c(OC)c2)ccc1O (stereo not given)")
"inactive"
>>> result("COc1cc(/C=C/c2cc(/C=C/c3ccc(O)c(OC)c3)n(C(=O)c3ccncc3)n2)ccc1O")
"2.5 uM/ml"
>>> result("COc1cc(/C=C/C(=O)C2=C(/C=C/c3ccc(O)c(OC)c3)N=C3Sc4ccccc4N3C2c2ccccc2O)ccc1O (stereo not given)")
"inactive"
>>> result("COc1cc(/C=C/C(=O)C2=C(/C=C/c3ccc(O)c(OC)c3)N=C3Sc4ccccc4N3C2c2ccccc2)ccc1O (stereo not given)")
"inactive"
>>> result("COc1cc(/C=C/C(=O)C2=C(/C=C/c3ccc(O)c(OC)c3)N=C3Sc4ccccc4N3C2c2c(Cl)cccc2Cl)ccc1O (stereo not given)")
"inactive"
>>> result("COc1cc(/C=C/C(=O)C2=C(/C=C/c3ccc(O)c(OC)c3)N=C3Sc4ccccc4N3C2c2ccc(Cl)cc2)ccc1O (stereo not given)")
"inactive"
>>> result("COc1cc(/C=C/C(=O)CC(=O)/C=C/c2ccc(O)c(OC)c2)ccc1O [CURCUMIN]")
"20 uM/ml"
>>> result("COc1cc(/C=C/c2cc(/C=C/c3ccc(O)c(OC)c3)n(-c3ccc([N+](=O)[O-])cc3[N+](=O)[O-])n2)ccc1O")
"2.5 uM/ml"
>>> result("COc1cc(/C=C/c2cc(/C=C/c3ccc(O)c(OC)c3)n(C(N)=O)n2)ccc1O")
"5 uM/ml"
>>> result("COc1cc(/C=C/C(=O)C(=Cc2ccccc2O)C(=O)/C=C/c2ccc(O)c(OC)c2)ccc1O")
"2.5 uM/ml"
